System: KM12 colon
ASSAY_PROTOCOL: NCI-60 one-dose screen, 48 h (100 = growth as untreated, 0 = no growth, -100 = all killed)
COND: 10 µM unless noted
Compounds without any hit were thinned out: in the full panel of roughly 83,000, 20% have a hit.
# label = 1.0 if growth >= 20% else 0.0

Task item: State whether the measured growth reaches 20%, counting equality as reaching it, for CC(=O)[C@@H]1CC[C@]2(C(=O)O)CC[C@]3(C)[C@H](CC[C@@H]4[C@@]5(C)Cc6c([nH]c7ccccc67)C(C)(C)[C@@H]5CC[C@]43C)[C@@H]12
Reply: 1.0

Task item: Is growth for CCCCc1ccc(N=Nc2ccc(OCC[N+](C)(C)C)cc2)cc1 at or above 20%?
Reply: 1.0

Task item: Item Cc1ccc(C(=O)/C(=C/c2ccc([N+](=O)[O-])cc2)S(=O)Cc2ccccc2)cc1 (stereo not drawn) with growth of 20% or above?
Reply: 1.0

Task item: Tell me whether growth is at least 20% here: Cc1c(Cl)cccc1NC(=O)c1sc2nc3c(cc2c1N)CCCCC3
Reply: 1.0

Task item: Is growth for CCCCc1n(Cc2ccc3ccccc3n2)cc[n+]1Cc1ccc2ccccc2c1 at or above 20%?
Reply: 0.0

Task item: Has N#CCNc1ccc(C(=O)O)cc1 a recorded growth greater than or equal to 20%?
Reply: 1.0

Task item: Hi, just wondering whether CCSc1ccc(C2C(Br)C(=O)N2c2cc(OC)c(OC)c(OC)c2)cc1 (stereo not drawn) shows growth of 20% or higher.
Reply: 0.0

Task item: Check if growth >= 20% (inclusive). Item: Cc1cc(C)cc(Nc2nccc(-c3c(-c4ccc(F)cc4)ncn3C3CCNCC3)n2)c1
Reply: 0.0

---

System: NCI-H23 lung
ASSAY_PROTOCOL: NCI-60 one-dose screen, 48 h (100 = growth as untreated, 0 = no growth, -100 = all killed)
COND: 10 µM unless noted
Compounds without any hit were thinned out: in the full panel of roughly 83,000, 20% have a hit. The source made the active and inactive calls. Rule for the calls: active = growth percent below 10; inactive = the rest.
VALUE_KIND: growth

Task item: Value wanted: growth (NCI-H23 lung) of entry CC1CCCN(CCCCCOc2ccc3oc4ccc(Cl)cc4c(=O)c3c2)C1 (stereo unspecified)
Reply: 78.6% (inactive)

Task item: Missing value: growth, NCI-H23 lung, entry Cn1c2ccccc2c2c(OC(=O)c3ccccc3)c3c(nc21)-c1ccccc1C3 . Fill in?
Reply: 86.1% (inactive)

Task item: For the record CCCn1c2cc(OCc3cn(-c4ccc(Br)cc4)nn3)ccc2c2ccnc(C)c21 , what value of growth is listed for NCI-H23 lung?
Reply: 81.7% (inactive)

Task item: What reported growth corresponds to Cc1nc(C)c(C)nc1C on NCI-H23 lung?
Reply: 102% (inactive)

Task item: State its growth on NCI-H23 lung: C=C(C)[C@@H]1CC[C@]2(C(N)=O)CC[C@]3(C)[C@H](CC[C@@H]4[C@@]5(C)CCCNC(C)(C)[C@@H]5CC[C@]43C)[C@@H]12
Reply: 76.4% (inactive)

Task item: Can you look up growth on NCI-H23 lung for CCOCc1cc(C(C)(C)C)ccc1O ?
Reply: 103% (inactive)

---

System: COLO 205 colon
ASSAY_PROTOCOL: NCI-60 one-dose screen, 48 h (100 = growth as untreated, 0 = no growth, -100 = all killed)
COND: 10 µM unless noted
About 83,000 compounds went through this panel and 20% of them were active in at least one assay; those are over-represented in the sample as a whole.
Consider the following compounds; for each one, report its growth.
Provide only the numeric value, understood in %.

Task item: Given the entry O=C(Nc1nc(-c2ccccc2)cs1)c1cc(-c2ccc(Br)cc2)nc2ccccc12 , report its measured growth.
Reply: 56.2

Task item: Look up growth: C=C1C(=O)O[C@H]2[C@H]1CC/C(COC(=O)Nc1nc3ccccc3[nH]1)=C\CC[C@@]1(C)O[C@@H]21
Reply: 17.3

Task item: Any idea what growth was measured for CCOC(=O)/C(=C/c1c(-c2ccccc2)[nH]c2ccccc12)C(=O)c1ccc(Cl)cc1 ?
Reply: 63.2

Task item: I'd like to know its growth. The compound in question is CC(=O)Nc1ccc2c(c1)Cc1cc(F)ccc1-2
Reply: 124

Task item: Reported growth for CN(C)CSc1nc2ccccc2s1 : what is it?
Reply: 91.6

Task item: So what does the record say about growth for C/C(=N/Nc1nc2ccccc2n1C)c1ccccn1 ?
Reply: -4.66

Task item: Recorded growth for CC[C@]12C=CCN3CC[C@@]4(c5ccc(OC)cc5N(C)[C@H]4[C@@](O)(C(=O)OC)[C@@H]1OC(=O)CCC(=O)O[C@H]1CC[C@H]4[C@@H]5CC[C@H]6CC(=O)CC[C@]6(C)[C@H]5CC[C@]14C)[C@@H]32 , please?
Reply: -22.1

Task item: Entry under review: Cc1cc(NC(=O)CNc2nc(Oc3ccc(F)cc3)nc(-c3ccc(F)cc3)n2)ccc1Cl . Reported growth?
Reply: 112

Task item: Query (compound): CC(=O)c1ccc(NC(=O)CSc2nnc(-c3cc(-c4ccc(Cl)cc4)nc4ccccc34)o2)cc1 ; field requested: growth
Reply: 96.6

Task item: Which growth is reported for this compound? N#Cc1ccc(N2Cc3cc(Cl)ccc3OC3=C2C(=O)N(Cc2ccc(F)cc2)C3=O)cc1
Reply: -73.5

Task item: Request the reported growth associated with N#CC(C#N)=C1NC(c2ccccc2)=C(c2ccccc2)C(c2ccccc2Cl)=C1C#N
Reply: 123

---

Test system: LOX IMVI melanoma
ASSAY_PROTOCOL: NCI-60 one-dose screen, 48 h
COND: 10 µM unless noted
About 83,000 compounds went through this panel and 20% of them were active in at least one assay; those are over-represented in the sample as a whole. Activity calls are given as the source filed them. The calls were made as follows: active = growth percent below 10; inactive = the rest.
Please answer using one outcome listed in 1 for active, 0 for inactive

Task item: Check the results log: what was the call for C(=C\c1cn(-c2ccccc2)nc1-c1ccccc1)/c1nnc(-c2c[nH]c3ccccc23)o1 ?
Reply: 0

Task item: Dear all, I need the recorded test outcome for O=c1c2ccccc2oc2ccc(OCCCCCCN3CCCCCC3)cc12 , thank you.
Reply: 0

Task item: Write down the call the test reported for this molecule. Item: Cn1nc(C(F)(F)F)c(-c2cc(C(F)(F)F)cc(C(F)(F)F)c2)c1-c1ccc(OCc2ccc(Cl)cc2)cc1O
Reply: 1

Task item: Called result for COc1ccc(C(=O)c2cc(OC)c(C)c(OC)c2)cc1OC(=O)CCl
Reply: 0

Task item: Recorded call for O=C1C(=O)c2c(nc3ccc(C(F)(F)F)cn23)-c2ccccc21 ?
Reply: 1

Task item: Could you please tell me the result logged for O=Cc1[nH]c(Sc2ccccc2)c2ccccc12 in this assay?
Reply: 0

Task item: What call does the record list for N#Cc1c(NC(=O)c2cccs2)[n+]([O-])c2cc(C(F)(F)F)ccc2[n+]1[O-] ?
Reply: 0

Task item: Which outcome was assigned to C=C1C(=O)O[C@H]2[C@H]1CC/C(COC(=O)n1ccnc1)=C\CC[C@@]1(C)O[C@@H]21 in this test?
Reply: 0

Task item: Please let me know the test result on file for Cc1cccc(C)c1NC(=O)CN(CC(C)C)CC(O)COc1ccccc1 (stereo unspecified) .
Reply: 0

Task item: What outcome does the record of this test show for CN1CCN(C(=O)[C@@]2(C)CC[C@]3(C)CC[C@]4(C)C(=CC[C@@H]5[C@@]6(C)CC[C@H](OC(=O)c7cccnc7)C(C)(C)[C@@H]6CC[C@]54C)[C@@H]3C2)CC1 ?
Reply: 1

Task item: Which outcome was entered for the molecule Cc1ccccc1NC(=O)c1sc2nc(C)c(C(C)O)cc2c1N (stereo unspecified) in this test?
Reply: 0

---

Tested on: NCI/ADR-RES ovarian
ASSAY_PROTOCOL: NCI-60 one-dose screen, 48 h
COND: 10 µM unless noted
The panel holds about 83,000 compounds, 20% with a hit somewhere; the sample as a whole holds those more often. Active and inactive are the calls of the source. How the source made its calls: active means growth percent below 10; inactive means the rest.
Log the outcome using a class from 1 (yes) = active, 0 (no) = inactive

Task item: So what was the verdict on CC(C)(C)c1nn(-c2ccccc2)c2c1COCN2Cc1ccc(Cl)cc1 in this test?
Reply: 0 (no)

Task item: GET /call?item= O=C(Nc1cc(Nc2ncccc2-c2ncnc3nc[nH]c23)ccc1F)c1cc(C(F)(F)F)cc(C(F)(F)F)c1 returns the recorded outcome of this test.
Reply: 1 (yes)

Task item: Check the results log: what was the call for COc1ccc(N(C)c2nc(Cl)nc3ccn(C)c23)cc1 ?
Reply: 1 (yes)

Task item: Name the outcome recorded for Cc1ccc(C2CC(c3ccc(Nc4nc(NCCO)nc(NCCO)n4)cc3)=NN2c2ccc(Cl)cc2)cc1 (stereo unspecified) in the assay.
Reply: 0 (no)

Task item: Hi, sorry to bother you, what did the test record for COc1ccc2[nH]c3nc4cnccc4cc3c2c1 ?
Reply: 0 (no)

Task item: // outcome(item) with item = O=c1c2ccccc2n(CC(O)CN2CCCC2)c2c(Br)cccc12 (stereo unspecified)
Reply: 1 (yes)

Task item: Test call for this molecule, please: Cc1cc(O)cc(O)c1N=NC1=NCCS1
Reply: 0 (no)

Task item: Status in this test for c1ccc2nc(N3CCOCC3)c(N3CCCCC3)nc2c1 ?
Reply: 0 (no)

Task item: Identify the outcome logged in this assay for the molecule shown: Cc1nnc(/N=C2\NC(=O)/C(=C/c3ccc(N(C)C)cc3)S2)s1
Reply: 0 (no)

Task item: Given C=C(C)[C@@H]1CC[C@]2(C(=O)OCCOCCOCC[P+](c3ccccc3)(c3ccccc3)c3ccccc3)CC[C@]3(C)[C@H](CC[C@@H]4[C@@]5(C)CC[C@H](OC(C)=O)C(C)(C)[C@@H]5CC[C@]43C)[C@@H]12 , state the outcome it received in this test.
Reply: 1 (yes)

Task item: How was COc1ccc(/C=C(/C(=O)N2CCCC2)c2cc(OC)c(OC)c(OC)c2)cc1 classified in this test?
Reply: 0 (no)

Task item: // return assay outcome for CSc1nc(-c2ccco2)c2c(N)[nH]nc2n1
Reply: 0 (no)

Task item: Hi, do you know how COc1ccccc1-c1ccc2nc(NC(=O)Nc3cc(C(F)(F)F)cc(C(F)(F)F)c3)sc2c1 came out in this test?
Reply: 1 (yes)

Task item: Could you check what this test reported for COc1cc(F)c(-c2nc3c(C)cccc3n2Cc2c(F)cccc2F)c(F)c1 ?
Reply: 0 (no)

Task item: Outcome logged for C=C(C)[C@@H]1CC[C@]2(C(=O)N3CCN(C)CC3)CC[C@]3(C)[C@H](CC[C@@H]4[C@@]5(C)C/C(=C/c6ccco6)C(=O)C(C)(C)[C@@H]5CC[C@]43C)[C@@H]12 in this assay:
Reply: 0 (no)

Task item: Entry N#CCNc1ccc(C(=O)O)cc1 : call = ?
Reply: 0 (no)

Task item: How did this test come out for CCC[S@@](=O)c1ccc2nc(NC(=O)OC)[nH]c2c1 ?
Reply: 0 (no)

Task item: Identify the outcome logged in this assay for the molecule shown: Cc1nc2sc(C(=O)Nc3ccccc3Cl)c(N)c2cc1C(C)O (stereo unspecified)
Reply: 0 (no)

Task item: Field: outcome | Entry: COc1ccc2c(c1)/C(=C1\S/C(=N/c3nnc(C)s3)NC1=O)C(=O)N2Cc1ccc(Cl)cc1
Reply: 0 (no)

Task item: How did this test come out for C=C1C(=O)O[C@H]2[C@H]1CC/C(COC(=O)CCCCC(=O)OC/C1=C/CC[C@@]3(C)O[C@H]3[C@H]3OC(=O)C(=C)[C@@H]3CC1)=C\CC[C@@]1(C)O[C@@H]21 ?
Reply: 0 (no)

Task item: What is the recorded call for this molecule in the test? COC(=O)c1nc(-c2ccccc2)oc1S(=O)(=O)n1nc(-c2ccccc2)cc1N
Reply: 0 (no)

Task item: For C=C1C(=O)O[C@H]2[C@H]1CC/C(COC(=O)NCC(=O)Nc1ccc(OC)c(C(N)=O)c1O)=C\CC[C@@]1(C)O[C@@H]21 , what call appears in the results of this test?
Reply: 0 (no)

Task item: Per the records of this test, what outcome belongs to CC(=O)OCC1OC(OC2C(COC(C)=O)OC(OCCC[S-])C(OC(C)=O)C2OC(C)=O)C(OC(C)=O)C(OC(C)=O)C1OC(C)=O.[Au+].c1ccc(CN2[CH-]N(Cc3ccccc3)C(c3ccccc3)=C2c2ccccc2)cc1 (stereo unspecified) ?
Reply: 0 (no)

Task item: In this assay, the call recorded for CN(C)C1=NCCN1 was what?
Reply: 0 (no)

Task item: Answer briefly: the call reported for C/C(=N/Nc1nc2ccccc2n1C)c1ccccn1 in this assay.
Reply: 1 (yes)

Task item: Recorded call for C=C1C(=O)O[C@H]2[C@H]1CC/C(COC(=O)c1c[nH]c3ccccc13)=C\CC[C@@]1(C)O[C@@H]21 ?
Reply: 1 (yes)
